Each entry below carries its recorded BODIPY-LDL uptake by HepG2 cells, fluorescence, 66.7 nM, replicate 1.
Target: human PCSK9 (PCSK9 antigen, SEQ ID NO. 53) (human, UniProt A8T644 31-152; Q8NBP7 153-692, Biotin-labelled on amines in the MSD-SET and sorting experiments; positions not given.); also: unit not given here
Experiment: cell-based or functional assay
Measurement Label: BODIPY-LDL uptake by HepG2 cells, fluorescence, 66.7 nM, replicate 1

>>> assay_value("ADI-02396 (antibody, human IgG2, kappa, V domains shown, IgG; also called parent antibody) VH: QLQLQESGPGLVKPSETLSLTCTVSGGSISSSSYYWGWIRQPPGKGLEWIGSIYYSGSTYYNPSLKSRVTISVDTSKNQFSLKLSSVTAADTAVYYCAREGSGVVPAAGPNWFDPWGQGTLVTVSS VL: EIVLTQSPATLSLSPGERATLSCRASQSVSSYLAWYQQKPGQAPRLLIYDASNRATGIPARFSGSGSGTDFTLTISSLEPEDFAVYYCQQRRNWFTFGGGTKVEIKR")
0.432
>>> assay_value("Lodelcizumab (antibody, V domains shown) VH: QVQLVQSGAEVKKPGASVKVSCKASGYTFSTMYMSWVRQAPGQGLEWMGRIDPANEHTNYAQKFQGRVTMTRDTSISTAYMELSRLTSDDTAVYYCARSYYYYNMDYWGQGTLVTVSS VL: QIVLTQSPATLSVSPGERATLSCRASQSVSYMHWYQQKPGQAPRLLIYGVFRRATGIPDRFSGSGSGTDFTLTIGRLEPEDFAVYYCLQWSSDPPTFGQGTKLEIK")
0.33
>>> assay_value("ADI-10087 (antibody, human IgG2, kappa, V domains shown, also called anti-PCSK antibody of the invention) VH: QLQLQESGPGLVKPSETLSLTCTVSGGSISSASYYWSWIRQPPGKGLEWIGSINYRGSTYYNPSLKSRVTISVDTSKNQFSLKLSSVTAADTAVYYCARENSGVVPAAGPNWFGPWGQGTLVTVSS VL: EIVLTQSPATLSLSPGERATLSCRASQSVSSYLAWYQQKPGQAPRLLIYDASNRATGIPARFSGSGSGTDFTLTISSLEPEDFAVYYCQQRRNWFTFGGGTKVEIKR")
0.758
